# targetEntity: UniProt:P00921
# procedureDetails: Inhibition of carbonic anhydrase 2 (unknown origin) using 4-NPA substrate after 15 mins by spectrophotometry
# Set-up: concentration or dose not given beside the values
observable: inhibition (%)
Please state the figure in %; there is no need to write the unit.

Worked examples follow.
>>> print(df.to_string())
                             compoundsmiles  obsvalue
0   O=C(CSc1nnc(SCC(=O)c2ccccc2)s1)c1ccccc1      33.8
1  O=C(CSc1nnc(-c2ccc(Cl)cc2)o1)c1cccc(O)c1         9
2  O=C(CSc1nnc(-c2ccc(OCc3ccccc3)cc2)o1)c1cccc(O)c1      48.2
3  O=C(CSc1nnc(SCC(=O)c2cccc(O)c2)s1)c1cccc(O)c1      42.9

[ask] Provide measured inhibition value, entry: "COc1ccccc1C(=O)CSc1nnc(-c2ccc(OCc3ccccc3)cc2)o1"
[reply] 33

###

# procedureDetails: Competitive inhibition of alpha-glucosidase (unknown origin) by Lineweaver-Burk plot
# Design: species or system Homo sapiens
observable: pKi
# pKi is unitless: minus log10 of the molar concentration; print number only

compound	obsValue
O=C(CSc1nnc(SCC(=O)c2ccccc2)s1)c1ccccc1	5.22

Consider now this further compound.
[ask] Quick one: give measured pKi for C[C@H]1O[C@H](O[C@H]2[C@H](O)[C@@H](O)[C@@H](O[C@H]3[C@H](O)[C@@H](O)C(O)O[C@@H]3CO)O[C@@H]2CO)[C@H](O)[C@@H](O)[C@@H]1N[C@H]1C=C(CO)[C@@H](O)[C@H](O)[C@H]1O (some centres not stated)
[reply] 3.05

###

# procedureDetails: Non-competitive inhibition of alpha-glucosidase (unknown origin) by Lineweaver-Burk plot
# Design: species or system Homo sapiens
observable: Ki (µM)
Expressed in µM, but write only the number.

[ask] Provide measured Ki value, entry: "COc1ccccc1C(=O)CSc1nnc(-c2ccc(OCc3ccccc3)cc2)o1"
[reply] 4.36

[ask] State its Ki: "O=C(CSc1nnc(SCC(=O)c2cccc(O)c2)s1)c1cccc(O)c1"
[reply] 14.3

[ask] Please report the measured Ki for "O=C(CSc1nnc(-c2ccc(OCc3ccccc3)cc2)o1)c1cccc(O)c1"
[reply] 11.2

[ask] Answer with the recorded Ki for the compound listed here: "O=C(CSc1nnc(-c2ccc(Cl)cc2)o1)c1cccc(O)c1"
[reply] 12

###

# System: Serpentes
# procedureDetails: Inhibition of snake venom phosphodiesterase 1 using bis(p-nitrophenyl) phosphate substrate after 30 mins by spectrophotometry
# Set-up: concentration or dose not given beside the values
observable: inhibition

Before answering, review these 3 worked examples.
In [3]: df
Out[3]:
                             compoundsmiles  targetentity  obsvalue
0  O=C(CSc1nnc(-c2ccc(OCc3ccccc3)cc2)o1)c1cccc(O)c1     Serpentes      1.8%
1  COc1ccccc1C(=O)CSc1nnc(-c2ccc(OCc3ccccc3)cc2)o1     Serpentes      8.5%
2  O=C(CSc1nnc(SCC(=O)c2cccc(O)c2)s1)c1cccc(O)c1     Serpentes      4.6%

[ask] // fetch inhibition given entry "O=C(CSc1nnc(-c2ccc(Cl)cc2)o1)c1cccc(O)c1"
[reply] 26%

[ask] Specify measured inhibition for "O=C(CSc1nnc(SCC(=O)c2ccccc2)s1)c1ccccc1" .
[reply] 12.3%

###

# procedureDetails: Inhibition of alpha-glucosidase (unknown origin) using p-nitrophenyl-alpha-D-glucopyranoside substrate measured up to 30 mins by multiplate spectrophotometry
# Parameters: species or system Homo sapiens
# conditionContext: read-out: IC50
observable: pIC50
Friendly reminder that pIC50 comes from taking -log10 of the concentration in mol/L.

Some compounds with known pIC50 results, for comparison:
compound	observable	obsValue
COc1ccccc1C(=O)CSc1nnc(SCC(=O)c2ccccc2OC)s1	pIC50	4.03
C[C@H]1O[C@H](O[C@H]2[C@H](O)[C@@H](O)[C@@H](O[C@H]3[C@H](O)[C@@H](O)C(O)O[C@@H]3CO)O[C@@H]2CO)[C@H](O)[C@@H](O)[C@@H]1N[C@H]1C=C(CO)[C@@H](O)[C@H](O)[C@H]1O (stereo partly specified)	pIC50	3.03
COc1ccccc1C(=O)CSc1nnc(-c2ccc(OCc3ccccc3)cc2)o1	pIC50	4.93
O=C(CSc1nnc(SCC(=O)c2ccc(-c3ccccc3)cc2)s1)c1ccc(-c2ccccc2)cc1	pIC50	4.29
COc1cccc(C(=O)CSc2nnc(-c3ccccc3)o2)c1	pIC50	3.74

[ask] Given the compound "O=C(CSc1nnc(-c2ccccc2)o1)c1ccc(Cl)c(Cl)c1" , write its reported pIC50.
[reply] 4.13

[ask] Retrieve pIC50 measured for "O=C(CSc1nnc(-c2ccccc2)o1)c1cccc(O)c1" and print it.
[reply] 3.95

[ask] Name the recorded pIC50 of the compound listed here: "COc1ccccc1C(=O)CSc1nnc(-c2ccc(Cl)cc2)o1"
[reply] 4.09

[ask] Read the entry "O=C(CSc1nnc(SCC(=O)c2ccc(Br)cc2)s1)c1ccc(Br)cc1" and write its reported pIC50.
[reply] 3.78

[ask] Give pIC50 for "O=C(CSc1nnc(SCC(=O)c2cccc(O)c2)s1)c1cccc(O)c1"
[reply] 4.69

[ask] Tell us which pIC50 value is on record for "O=C(CSc1nnc(-c2ccc(Cl)cc2)o1)c1cccc(O)c1"
[reply] 4.62

###

# procedureDetails: Inhibition of alpha-glucosidase (unknown origin) using p-nitrophenyl-alpha-D-glucopyranoside substrate measured up to 30 mins by multiplate spectrophotometry
# Set-up: species or system Homo sapiens
# conditionContext: read-out: IC50
observable: IC50
Write the figure, then the unit, nothing else.

In [3]: df
Out[3]:
                             compoundsmiles  obsvalue
0  O=C(CSc1nnc(-c2ccc(OCc3ccccc3)cc2)o1)c1cccc(O)c1   17.9 µM
1  O=C(CSc1nnc(-c2cccnc2)o1)c1ccc(-c2ccccc2)cc1    125 µM
2   O=C(CSc1nnc(SCC(=O)c2ccccc2)s1)c1ccccc1   10.8 µM

[ask] Quickly give me recorded IC50 for "O=C(CSc1nnc(-c2ccc(Cl)cc2)o1)c1cccc(F)c1"
[reply] 49.1 µM

[ask] Quote IC50 reported for "O=C(CSc1nnc(SCC(=O)c2cccc(F)c2)s1)c1cccc(F)c1" please.
[reply] 24.6 µM
